tested on: 301 cancer cell lines from different tumor types (OncoPanel; HD Biosciences); test: 2D cell viability inhibition assay (CellTiter-Glo) in cancer cell line panel; type: cell-based; conditions: 168 h, HS852T; skin, NS
assay.readout: IC50

>>> df
                                   molecule  assay_readout  result_value
0  CC(C)c1ccc(N(C)c2ccc3c(c2)OCC[C@H]3CNc2cnccc2C(=O)O)cc1 [Compound 1]           IC50       > 10 µM

* * *

assay: Sink condition: solubility of API in DI water and SGF; format: physicochemical; conditions: thermodynamic from solid; diluent DI water; read-out: Final Concentration
assay.readout: solubility

>>> df
                                   molecule  result_value
0  CC(C)c1ccc(N(C)c2ccc3c(c2)OCC[C@H]3CNc2cnccc2C(=O)O)cc1 [Compound 1]  ≥ 4300 µg/mL

* * *

test system: 301 cancer cell lines from different tumor types (OncoPanel; HD Biosciences); assay: 2D cell viability inhibition assay (CellTiter-Glo) in cancer cell line panel; assay type: cell-based; settings: Homo sapiens, BFTC-905, BFTC905 cell line
assay.readout: IC50 (nM)

                                test_smiles  units_of_measure  result_value
0  CC(C)c1ccc(N(C)c2ccc3c(c2)OCC[C@H]3CNc2cnccc2C(=O)O)cc1                nM          9.91

* * *

tested on: 301 cancer cell lines from different tumor types (OncoPanel; HD Biosciences); assay: 2D cell viability inhibition assay (CellTiter-Glo) in cancer cell line panel; assay type: cell-based; details: TE4 cell line
pEC50: −log10 of the molar value.
assay.readout: pEC50

>>> print(df.to_string())
                                test_smiles  assay_readout  result_value
0  CC(C)c1ccc(N(C)c2ccc3c(c2)OCC[C@H]3CNc2cnccc2C(=O)O)cc1          pEC50          8.04

* * *

test system: 301 cancer cell lines from different tumor types (OncoPanel; HD Biosciences); test: 2D cell viability inhibition assay (CellTiter-Glo) in cancer cell line panel; assay type: cell-based; details: Homo sapiens, MC116, MC116 cell line
pIC50: −log10 of the molar value.
assay.readout: pIC50

>>> print(df.to_string())
                                test_smiles  result_value
0  CC(C)c1ccc(N(C)c2ccc3c(c2)OCC[C@H]3CNc2cnccc2C(=O)O)cc1          8.34

* * *

system: 301 cancer cell lines from different tumor types (OncoPanel; HD Biosciences); assay: 2D cell viability inhibition assay (CellTiter-Glo) in cancer cell line panel; type: cell-based; conditions: Homo sapiens, NCI-H2286, NCIH2286 cell line
pIC50: −log10 of the molar value.
assay.readout: pIC50

>>> print(df.to_string())
                                test_smiles  assay_readout  result_value
0  CC(C)c1ccc(N(C)c2ccc3c(c2)OCC[C@H]3CNc2cnccc2C(=O)O)cc1          pIC50          8.45

* * *

tested on: 301 cancer cell lines from different tumor types (OncoPanel; HD Biosciences); assay: 2D cell viability inhibition assay (CellTiter-Glo) in cancer cell line panel; assay type: cell-based; settings: Homo sapiens, CCF-STTG1, 168 h, CCFSTTG1; central nervous system, astrocytoma; 168 hours
pIC50: −log10 of the molar value.
assay.readout: pIC50

In [3]: df
Out[3]:
                                test_smiles  result_value
0  CC(C)c1ccc(N(C)c2ccc3c(c2)OCC[C@H]3CNc2cnccc2C(=O)O)cc1        < 5.00

* * *

system: 301 cancer cell lines from different tumor types (OncoPanel; HD Biosciences); assay: 2D cell viability inhibition assay (CellTiter-Glo) in cancer cell line panel; type: cell-based; conditions: GAK cell line
pIC50: −log10 of the molar value.
assay.readout: pIC50

                                   compound  result_value
0  CC(C)c1ccc(N(C)c2ccc3c(c2)OCC[C@H]3CNc2cnccc2C(=O)O)cc1 [Compound 1]        < 5.00

* * *

tested on: 301 cancer cell lines from different tumor types (OncoPanel; HD Biosciences); experiment: 2D cell viability inhibition assay (CellTiter-Glo) in cancer cell line panel; assay type: cell-based; conditions: Homo sapiens, Daoy, 168 h; central nervous system, NS
assay.readout: IC50

In [3]: df
Out[3]:
                                test_smiles  result_value
0  CC(C)c1ccc(N(C)c2ccc3c(c2)OCC[C@H]3CNc2cnccc2C(=O)O)cc1       > 10 µM

* * *

system: 301 cancer cell lines from different tumor types (OncoPanel; HD Biosciences); assay: 2D cell viability inhibition assay (CellTiter-Glo) in cancer cell line panel; format: cell-based; details: Homo sapiens, C32, C32 cell line
pIC50: −log10 of the molar value.
assay.readout: pIC50

                                   compound  result_value
0  CC(C)c1ccc(N(C)c2ccc3c(c2)OCC[C@H]3CNc2cnccc2C(=O)O)cc1 [Compound 1]          8.27

* * *

tested on: 301 cancer cell lines from different tumor types (OncoPanel; HD Biosciences); assay: 2D cell viability inhibition assay (CellTiter-Glo) in cancer cell line panel; type: cell-based; details: Homo sapiens, CAKI-1, CAKI1 cell line
pEC50: −log10 of the molar value.
assay.readout: pEC50

>>> df
                                   molecule  result_value
0  CC(C)c1ccc(N(C)c2ccc3c(c2)OCC[C@H]3CNc2cnccc2C(=O)O)cc1 [Compound 1]        ≤ 5.00

* * *

system: 301 cancer cell lines from different tumor types (OncoPanel; HD Biosciences); experiment: 2D cell viability inhibition assay (CellTiter-Glo) in cancer cell line panel; format: cell-based; settings: Homo sapiens, HCC38, 168 h, HCC38; breast, ductal carcinoma; 168 hours
assay.readout: IC50

In [3]: df
Out[3]:
                                test_smiles  result_value
0  CC(C)c1ccc(N(C)c2ccc3c(c2)OCC[C@H]3CNc2cnccc2C(=O)O)cc1       > 10 µM

* * *

tested on: 301 cancer cell lines from different tumor types (OncoPanel; HD Biosciences); assay: 2D cell viability inhibition assay (CellTiter-Glo) in cancer cell line panel; format: cell-based; details: Homo sapiens, HuTu80, HUTU80 cell line
pIC50: −log10 of the molar value.
assay.readout: pIC50

>>> df
                                test_smiles                           measured_target  result_value
0  CC(C)c1ccc(N(C)c2ccc3c(c2)OCC[C@H]3CNc2cnccc2C(=O)O)cc1  301 cancer cell lines from different tumor types (OncoPanel; HD Biosciences)          8.36

* * *

tested on: 301 cancer cell lines from different tumor types (OncoPanel; HD Biosciences); test: 2D cell viability inhibition assay (CellTiter-Glo) in cancer cell line panel; format: cell-based; conditions: Homo sapiens, HepG2, HEPG2 cell line
assay.readout: IC50 (nM)

                                test_smiles                           measured_target  result_value
0  CC(C)c1ccc(N(C)c2ccc3c(c2)OCC[C@H]3CNc2cnccc2C(=O)O)cc1  301 cancer cell lines from different tumor types (OncoPanel; HD Biosciences)          52.1

* * *

test system: 301 cancer cell lines from different tumor types (OncoPanel; HD Biosciences); assay: 2D cell viability inhibition assay (CellTiter-Glo) in cancer cell line panel; assay type: cell-based; settings: Homo sapiens, SCC-15, 168 h, SCC15; upper aerodigestive tract, squamous cell carcinoma; 168 hours
pIC50: −log10 of the molar value.
assay.readout: pIC50

>>> print(df.to_string())
                                test_smiles                           measured_target  assay_readout  result_value
0  CC(C)c1ccc(N(C)c2ccc3c(c2)OCC[C@H]3CNc2cnccc2C(=O)O)cc1  301 cancer cell lines from different tumor types (OncoPanel; HD Biosciences)          pIC50        < 5.00

* * *

tested on: 301 cancer cell lines from different tumor types (OncoPanel; HD Biosciences); test: 2D cell viability inhibition assay (CellTiter-Glo) in cancer cell line panel; assay type: cell-based; details: Homo sapiens, RL, RL cell line
assay.readout: EC50 (nM)

In [3]: df
Out[3]:
                                test_smiles                           measured_target  result_value
0  CC(C)c1ccc(N(C)c2ccc3c(c2)OCC[C@H]3CNc2cnccc2C(=O)O)cc1  301 cancer cell lines from different tumor types (OncoPanel; HD Biosciences)          1.88

* * *

tested on: 301 cancer cell lines from different tumor types (OncoPanel; HD Biosciences); assay: 2D cell viability inhibition assay (CellTiter-Glo) in cancer cell line panel; format: cell-based; conditions: Homo sapiens, BT-474, 168 h, BT474; breast, ductal carcinoma; 168 hours
pIC50: −log10 of the molar value.
assay.readout: pIC50

                                test_smiles  assay_readout  result_value
0  CC(C)c1ccc(N(C)c2ccc3c(c2)OCC[C@H]3CNc2cnccc2C(=O)O)cc1          pIC50        < 5.00
